method summary: Quantitative high throughput screen for delayed death inhibitors of the malarial parasite plastid, 96 hour incubation (AID 488745); further: nearly all actives have a fitted effect of over 70% in size
condition summary: Plasmodium falciparum growth; series mostly up to 28.7 µM
Records with an inconclusive call do not appear. Activity calls are given as the source filed them. The call rests on the fitted dose curve; in most records, active means well fitted inhibition curve with a large enough effect; inconclusive means small, poorly fitted or top-dose-only effect, or effect the other way; inactive means no such curve, though single readings can be large or run the other way.
Select the matching outcome among 1.0 for active, 0.0 for inactive

Example entries and their recorded answers appear below.
O=C(O)Cc1ccc(O)c(O)c1 : 0.0
COc1ccc2c(c1)CCC1C2CC[C@@]2(C)C1CC[C@@H]2NCCCCCCN1C(=O)C=CC1=O (some centres not stated) : 0.0
NC(N)=NC(N)=Nc1ccccc1 : 0.0
CCCOC(=O)c1c(-c2ccccc2)nc(CC)c(C(=O)SCC)c1CCC : 1.0
C[N+](C)(C)CC=O : 0.0

What was the test verdict on Nn1nnc2ccccc21 ?
0.0

What was the test verdict on N[C@H]1CONC1=O ?
0.0

----------
method summary: Validation screen for small molecules that induce DNA re-replication in MCF 10A normal breast cells (AID 463097); further: nearly all actives have a fitted effect of over 60% in size
condition summary: MCF 10A cells, DNA re-replication phenotype imaging; series mostly up to 46.1 µM
Inconclusive results are not listed. The source made the active and inactive calls. Calls follow the shape of the dose curve; as a rule, active = well fitted activation curve with a large enough effect; inconclusive = small, poorly fitted or top-dose-only effect; inactive = flat fitted curve, though single readings scatter.
Select the matching outcome among active, inactive

Example entries and their recorded answers appear below.
C=C1C(=O)O[C@@H]2[C@H]3O[C@]3(C)CCC=C(C)CC[C@@H]12 : active
CO/N=C(\C(=O)N[C@@H]1C(=O)N2C(C(=O)O)=C(CSc3nc(=O)c(O)nn3C)CSC12)c1csc(N)n1 (stereo partly specified) : inactive
NCCS(=O)O : inactive

What was the test verdict on NC(N)=N[C@@H](CCC(=O)O)C(=O)O ?
inactive

----------
target or test system: Flap endonuclease 1 (Homo sapiens)
method summary: qHTS Validation Assay for the Inhibitors of Human Flap endonuclease 1 (FEN1) (AID 488816); further: on the % scale 0 is the no-effect control and ±100 the full control effect
condition summary: FEN1 nuclease activity, fluorogenic DNA substrate; series mostly up to 57.1 µM
Active and inactive are the calls of the source. Calls come from the whole dose curve; as a rule, active = well fitted inhibition curve with a large enough effect; inconclusive = small, poorly fitted or top-dose-only effect; inactive = flat fitted curve, though single readings scatter.
Select the matching outcome among active, inactive

Example entries and their recorded answers appear below.
CC(=O)/C(C)=N/O : inactive
N=C(N)SCCc1cnc[nH]1 : inactive
CC[C@H](NC(=O)c1c(C)c(-c2ccccc2)nc2ccccc12)c1ccccc1 : inactive

Okay, next one:
What was the test verdict on COc1ccc(CCn2nnnc2C2(c3ccc(C)cc3)CC2)cc1 ?
inactive

----------
method summary: qHTS for Inhibitors of ATXN expression: Validation of Cytotoxic Assay (AID 588349);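 further: cells exposed to compound for 72 hr; on the % scale 0 is the no-effect control and ±100 the full control effect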
condition summary: cytotoxicity counter-screen for ATXN expression inhibitors, cell viability; series mostly up to 57.1 µM
Results filed as inconclusive are left out. Active and inactive are the calls of the source. The call rests on the fitted dose curve; in most records, active means well fitted cell-killing curve with a large enough effect; inconclusive means small, poorly fitted or top-dose-only effect, or effect the other way; inactive means flat fitted curve, though single readings scatter.
Select the matching outcome among 1 = active, 0 = inactive

Example entries and their recorded answers appear below.
O=C(O)C1CN(CCCP(=O)(O)O)CCN1 (centres undefined) : 0
Nc1nc2[nH]c(=O)cnc2c(=O)[nH]1 : 0
Brc1c(Br)c(Br)c2[nH]cnc2c1Br : 0
COc1ccc(CCN(C)CCc2ccc(OC)c(OC)c2)cc1OC : 0
COc1cc(CC(=O)O)ccc1O : 0

What was the test verdict on O=C(O)C1=CCCNC1 ?
0

What was the test verdict on Cc1nc2n(c(=O)c1CCN1CCC(c3noc4cc(F)ccc34)CC1)CCCC2O (centres undefined) ?
0

What was the test verdict on CC(C)(C)NCC(O)COc1cccc2[nH]c(=O)[nH]c12 (centres undefined) ?
0

What was the test verdict on CC(O)C(O)[C@H]1CNc2nc(N)[nH]c(=O)c2N1 (some centres undefined) ?
0

----------
method summary: qHTS for differential inhibitors of proliferation of Plasmodium falciparum line GB4 (AID 1816);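 further: parasite growth measured after 72 h incubation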
condition summary: Plasmodium falciparum GB4 proliferation inhibition; series mostly up to 28.7 µM
Results filed as inconclusive are left out. The source made the active and inactive calls. The call rests on the fitted dose curve; in most records, active means well fitted curve in the direction sought with a large enough effect; inconclusive means small, poorly fitted or top-dose-only effect, or another doubt; inactive means no such curve, though single readings can be large or run the other way.
Select the matching outcome among y (active), n (inactive)

Example entries and their recorded answers appear below.
O=C(N[C@@H](Cc1ccccc1)C(=O)CCl)OCc1ccccc1 : y
COC(=O)C(C)(N)Cc1ccc(O)cc1 (stereo not given) : y
COc1ccc2c(c1)CCC1C2CC[C@@]2(C)C1CC[C@@H]2NCCCCCCN1C(=O)C=CC1=O (stereo not given in full) : n
CC(C)NCC(O)COc1ccc(CC(N)=O)cc1 (stereo not given) : n
N[C@H]1CONC1=O : n

What was the test verdict on C#CC(N)CCC(=O)O (stereo not given) ?
n

What was the test verdict on Cn1ccnc1 ?
n

What was the test verdict on Cc1ccc([N+](=O)[O-])cc1S(=O)(=O)N(C)C ?
n

What was the test verdict on O=C(O)C1CCCNC1 (stereo not given) ?
n

What was the test verdict on CC(=O)NNC(=O)N1Cc2ccccc2Oc2ccc(Cl)cc21 ?
n

What was the test verdict on O=C1NC(=O)c2cc(Nc3ccccc3)c(Nc3ccccc3)cc21 ?
y

----------
method summary: qHTS for differential inhibitors of proliferation of Plasmodium falciparum line 7G8 (AID 1815);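 further: parasite growth measured after three days of incubation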
condition summary: Plasmodium falciparum 7G8 proliferation inhibition; series mostly up to 28.7 µM
Records with an inconclusive call do not appear. Calls of active or inactive are those of the source. Calls come from the whole dose curve; as a rule, active = well fitted curve in the direction sought with a large enough effect; inconclusive = small, poorly fitted or top-dose-only effect, or another doubt; inactive = no such curve, though single readings can be large or run the other way.
Select the matching outcome among active, inactive

Example entries and their recorded answers appear below.
CCCc1c(OCCCOc2ccc(OCC(=O)O)cc2)ccc(C(C)=O)c1O : inactive
Cc1ccc([N+](=O)[O-])cc1S(=O)(=O)N(C)C : inactive
O=[N+]([O-])c1cccc2c(Br)[nH]nc12 : inactive
NC(=O)CC[C@H](N)C(=O)O : inactive
CC1C(=O)N(C)C(=O)c2nc[nH]c21 (stereo unspecified) : inactive

What was the test verdict on CCCCS(=N)(=O)CC[C@H](N)C(=O)O (stereo partly specified) ?
active

What was the test verdict on NCCCCN ?
inactive

What was the test verdict on CCSC(=N)N ?
inactive

What was the test verdict on CSC(=N)N ?
inactive

What was the test verdict on [N-]=[N+]=Nc1ccc(C(=O)CSC[C@H](NC(=O)CC[C@H](N)C(=O)O)C(=O)NCC(=O)O)cc1 ?
inactive

What was the test verdict on C=CCn1c(=O)c2c(nc(-c3ccc(S(=O)(=O)O)cc3)n2C)n(C)c1=O ?
inactive

What was the test verdict on CN(C)C(=O)/N=N/C(=O)N(C)C ?
inactive

----------
target or test system: Voltage-gated inwardly rectifying potassium channel KCNH2 (Homo sapiens) (UniProt Q12809)
Sequence (Q12809 whole entry, looked up): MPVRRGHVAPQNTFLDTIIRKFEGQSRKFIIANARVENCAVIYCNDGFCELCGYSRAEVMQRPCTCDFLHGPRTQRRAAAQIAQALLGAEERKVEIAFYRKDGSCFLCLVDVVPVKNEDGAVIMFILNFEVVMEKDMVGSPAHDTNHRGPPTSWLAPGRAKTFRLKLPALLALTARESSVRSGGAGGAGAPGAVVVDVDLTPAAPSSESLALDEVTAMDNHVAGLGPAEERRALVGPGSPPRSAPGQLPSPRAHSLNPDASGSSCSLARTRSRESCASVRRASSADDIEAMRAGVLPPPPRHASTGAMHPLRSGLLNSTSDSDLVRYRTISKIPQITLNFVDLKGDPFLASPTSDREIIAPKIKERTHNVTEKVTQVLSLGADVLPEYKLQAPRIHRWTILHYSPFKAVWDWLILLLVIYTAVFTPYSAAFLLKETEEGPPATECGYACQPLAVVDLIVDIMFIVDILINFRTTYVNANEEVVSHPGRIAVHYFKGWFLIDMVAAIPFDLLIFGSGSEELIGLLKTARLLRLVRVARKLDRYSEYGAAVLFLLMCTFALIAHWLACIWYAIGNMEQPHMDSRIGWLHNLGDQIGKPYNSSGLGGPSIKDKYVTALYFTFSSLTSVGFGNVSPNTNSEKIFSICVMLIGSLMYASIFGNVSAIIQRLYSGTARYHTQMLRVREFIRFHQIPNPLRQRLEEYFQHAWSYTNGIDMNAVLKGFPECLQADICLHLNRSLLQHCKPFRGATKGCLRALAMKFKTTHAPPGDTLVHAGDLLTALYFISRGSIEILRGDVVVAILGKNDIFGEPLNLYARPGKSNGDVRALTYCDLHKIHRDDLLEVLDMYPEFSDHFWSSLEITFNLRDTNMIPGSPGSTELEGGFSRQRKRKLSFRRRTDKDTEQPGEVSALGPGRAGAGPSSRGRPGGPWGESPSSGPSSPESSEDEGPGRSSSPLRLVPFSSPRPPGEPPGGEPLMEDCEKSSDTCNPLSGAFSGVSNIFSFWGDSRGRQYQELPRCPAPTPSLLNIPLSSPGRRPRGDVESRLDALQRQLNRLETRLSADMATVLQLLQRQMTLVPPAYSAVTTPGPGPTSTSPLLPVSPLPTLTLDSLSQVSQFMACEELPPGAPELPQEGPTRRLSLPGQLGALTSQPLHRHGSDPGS
method summary: qHTS Assay for Small Molecule Inhibitors of the Human hERG Channel Activity (AID 588834);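 further: lower thallium flux fluorescence means stronger hERG block; nearly all actives have a fitted effect of over 50% in size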
condition summary: U2OS BacMam hERG, FluxOR thallium flux fluorescence; series mostly up to 46.1 µM
Experimental: NIH Chemical Genomics Center [NCGC] National Institutes of Environmental Health Sciences [NIEHS] National Toxicology Program [NTP] We have developed a 1536-well cell-based assay for quantitative high throughput screening (qHTS) to determine in vitro hERG channel blockage as a measure of cardio toxicity with small molecules. […] 13. Read fluorescence Intensity on FDSS for 10 Sec with 1 sec interval […] 15. Read fluorescence Intensity on FDSS for 2 min with 1 sec interval […]
Inconclusive results are not listed. Active and inactive are the calls of the source. Calls come from the whole dose curve; as a rule, active = well fitted inhibition curve with a large enough effect; inconclusive = small, poorly fitted or top-dose-only effect; inactive = flat fitted curve, though single readings scatter.
Select the matching outcome among active, inactive

CC(N)(C(=O)O)c1ccc(C(=O)O)cc1 (centres undefined) : inactive
O=C(O)C1CCCNC1 (centres undefined) : inactive
Cn1c(=O)[nH]c2ncn(C)c2c1=O : inactive
O=C(O)/C=C/c1cnc[nH]1 : inactive
N[C@H]1CONC1=O : inactive
CCCCCCCCCC[Si](C)(C)CCC(=O)NC(Cc1ccc(C)cc1)c1ccccc1 (centres undefined) : inactive
CN[C@H](CC(=O)O)C(=O)O : inactive
NCCC1CCCC(CCN)N1 (centres undefined) : inactive
O=C1OC(=O)C2C3CCC(O3)C12 (centres undefined) : inactive
CC(C)Cn1c(=O)n(C)c(=O)c2[nH]cnc21 : inactive

What was the test verdict on C#CCn1c(=O)c2c(ncn2C)n(C)c1=O ?
inactive

What was the test verdict on CCCN(CCc1ccccc1)C1CCc2c(O)cccc2C1 (centres undefined) ?
active

What was the test verdict on CC(=O)NNC(=O)N1Cc2ccccc2Oc2ccc(Cl)cc21 ?
inactive

What was the test verdict on OCC1NCC(O)C(O)C1O (centres undefined) ?
inactive

----------
target or test system: Thyrotropin-releasing hormone receptor (Homo sapiens)
method summary: qHTS for Small Molecule Agonists and Allosteric Enhancers of Human TRH Receptor: Validation Screen for Agonists (AID 493127);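 further: intracellular calcium rise by fluo-8 fluorescence before TRH EC20 addition; 0% is about no effect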
condition summary: TRH receptor agonist cell assay; at 2 µM; hits give high values
Calls of active or inactive are those of the source.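 The calls were made as follows: active = calcium activation more than 3 SD above the typical response in the agonist read; inactive = the rest.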
Each entry below carries its reported activation.

Here's what some known entries look like.
CC1CCN(CC[C@H]2CCCN2S(=O)(=O)c2cccc(O)c2)CC1 : 2.44% (inactive)
NC(=O)c1ccccc1 : 0.25% (inactive)

Now turn to the next molecule.
Please look up its activation: CC(C)(CO)Cc1cc(C(C)(C)C)c(O)c(C(C)(C)C)c1
-13.9% (inactive)

----------
target or test system: Glutaminase kidney isoform, mitochondrial (Homo sapiens)
method summary: qHTS for Inhibitors of Glutaminase (GLS): LOPAC Validation (AID 624146); further: nearly all actives have a fitted effect of over 60% in size
condition summary: glutaminase enzyme activity inhibition; series mostly up to 46.1 µM
Results filed as inconclusive are left out. The source made the active and inactive calls. Calls follow the shape of the dose curve; as a rule, active = well fitted inhibition curve with a large enough effect; inconclusive = small, poorly fitted or top-dose-only effect; inactive = no such curve, though single readings can be large or run the other way.
Select the matching outcome among 1.0 = active, 0.0 = inactive

Example entries and their recorded answers appear below.
CCCCOc1cc(CC2CNC(=O)N2)ccc1OC (stereo not drawn) : 0.0
O=c1cc(O)cc(/C=C/c2ccc(O)c(O)c2)o1 : 1.0
CN(CC[C@@H](Oc1ccc(C(F)(F)F)cc1)c1ccccc1)CC(=O)O : 0.0

What was the test verdict on Cc1nc(N=Nc2ccc(S(=O)(=O)O)cc2S(=O)(=O)O)c(COP(=O)(O)O)c(C=O)c1O ?
0.0
